Biological target: Factor X (FX), P00742
Sequence (P00742 whole entry, looked up): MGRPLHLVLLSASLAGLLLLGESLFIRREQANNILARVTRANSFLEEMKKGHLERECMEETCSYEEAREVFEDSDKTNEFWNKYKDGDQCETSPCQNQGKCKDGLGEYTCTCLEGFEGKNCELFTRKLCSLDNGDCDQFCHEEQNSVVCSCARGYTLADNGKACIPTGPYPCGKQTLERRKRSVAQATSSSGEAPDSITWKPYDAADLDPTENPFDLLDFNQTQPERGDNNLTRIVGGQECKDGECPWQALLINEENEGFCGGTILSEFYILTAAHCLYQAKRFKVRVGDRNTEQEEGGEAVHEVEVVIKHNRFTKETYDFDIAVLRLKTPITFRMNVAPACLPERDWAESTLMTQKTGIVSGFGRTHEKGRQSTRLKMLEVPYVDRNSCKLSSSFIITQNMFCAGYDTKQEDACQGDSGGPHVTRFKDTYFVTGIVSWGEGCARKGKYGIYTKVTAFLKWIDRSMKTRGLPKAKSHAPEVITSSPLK
# kcat/KM for FX activation (Xase: FVIIIa, PC/PS vesicles, Ca2+) values compiled below
QUANTITY NAME: kcat/KM for FX activation (Xase: FVIIIa, PC/PS vesicles, Ca2+)

FIXa-Y155F/R318Y/T343R/E410N (protein) chain 1: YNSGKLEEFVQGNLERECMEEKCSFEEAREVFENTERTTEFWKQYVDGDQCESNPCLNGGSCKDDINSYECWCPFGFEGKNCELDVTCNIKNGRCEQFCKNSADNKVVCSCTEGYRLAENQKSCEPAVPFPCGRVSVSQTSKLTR chain 2: VVGGEDAKPGQFPWQVVLNGKVDAFCGGSIVNEKWIVTAAHCVETGVKITVVAGEHNIEETEHTEQKRNVIRIIPHHNYNAAINKYNHDIALLELDEPLVLNSYVTPICIADKEYTNIFLKFGSGYVSGWGRVFHKGYSALVLQYLRVPLVDRATCLRSTKFRIYNNMFCAGFHEGGRDSCQGDSGGPHVTEVEGTSFLTGIISWGEECAMKGKYGIYTKVSRYVNWIKNKTKLT :: 1.5e+08 M⁻¹ s⁻¹
FIXa-Y155F/R338E/T343R/E410N (protein) chain 1: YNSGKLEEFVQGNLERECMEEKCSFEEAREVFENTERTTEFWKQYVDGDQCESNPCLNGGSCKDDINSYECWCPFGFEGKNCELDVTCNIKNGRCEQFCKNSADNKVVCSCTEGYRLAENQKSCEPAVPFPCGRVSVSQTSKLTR chain 2: VVGGEDAKPGQFPWQVVLNGKVDAFCGGSIVNEKWIVTAAHCVETGVKITVVAGEHNIEETEHTEQKRNVIRIIPHHNYNAAINKYNHDIALLELDEPLVLNSYVTPICIADKEYTNIFLKFGSGYVSGWGRVFHKGRSALVLQYLRVPLVDRATCLESTKFRIYNNMFCAGFHEGGRDSCQGDSGGPHVTEVEGTSFLTGIISWGEECAMKGKYGIYTKVSRYVNWIKNKTKLT :: 3.5e+08 M⁻¹ s⁻¹
FIXa-Y155F/R318Y/T343R/R403E (protein) chain 1: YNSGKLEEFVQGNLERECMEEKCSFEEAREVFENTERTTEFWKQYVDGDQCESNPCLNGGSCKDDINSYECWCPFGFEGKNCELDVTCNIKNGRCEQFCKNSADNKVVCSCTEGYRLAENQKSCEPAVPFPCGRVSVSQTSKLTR chain 2: VVGGEDAKPGQFPWQVVLNGKVDAFCGGSIVNEKWIVTAAHCVETGVKITVVAGEHNIEETEHTEQKRNVIRIIPHHNYNAAINKYNHDIALLELDEPLVLNSYVTPICIADKEYTNIFLKFGSGYVSGWGRVFHKGYSALVLQYLRVPLVDRATCLRSTKFRIYNNMFCAGFHEGGRDSCQGDSGGPHVTEVEGTSFLTGIISWGEECAMKGKYGIYTKVSEYVNWIKEKTKLT :: 7.1e+07 M⁻¹ s⁻¹
FIXa-Y155F/K247N/N249S/R318Y/R338E/T343R (protein) chain 1: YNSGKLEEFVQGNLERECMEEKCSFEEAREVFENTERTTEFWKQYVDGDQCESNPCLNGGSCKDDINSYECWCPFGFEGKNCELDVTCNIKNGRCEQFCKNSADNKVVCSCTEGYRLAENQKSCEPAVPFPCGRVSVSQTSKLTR chain 2: VVGGEDAKPGQFPWQVVLNGKVDAFCGGSIVNEKWIVTAAHCVETGVKITVVAGEHNIEETEHTEQNRSVIRIIPHHNYNAAINKYNHDIALLELDEPLVLNSYVTPICIADKEYTNIFLKFGSGYVSGWGRVFHKGYSALVLQYLRVPLVDRATCLESTKFRIYNNMFCAGFHEGGRDSCQGDSGGPHVTEVEGTSFLTGIISWGEECAMKGKYGIYTKVSRYVNWIKEKTKLT :: 3.6e+08 M⁻¹ s⁻¹
